Test: 384-well plate pilot, post-Golgi transport modulator project, inhibition of yeast transport mutant growth (AID 636); further: test concentration not given here
Settings: absorbance 615 nm, about 18 h, hits give high values
Please respond with reported inhibition for every item in the list.
Numbers only, in %.

>>> df
                                   compound  value_observed
0  Nn1c(SCC(=O)Nc2ccc(S(=O)(=O)N3CCCC3)cc2)nnc1C(F)(F)F               0
1  CCCc1nc2ccccc2c(=O)n1NC(=O)c1c(O)c2cccc3c2n(c1=O)CCC3            -5.2
2  Cc1cccc(-n2c(SCc3cc(=O)n4ccsc4n3)nc3ccccc32)c1            3.01
3  c1cc2c(cc1Nc1nc(-c3ccc4c(c3)OCO4)cs1)OCCO2           -4.19
4  CCCCCn1c(CN2CCN(c3cccc(Cl)c3)CC2)nc2c1c(=O)n(C)c(=O)n2C             7.7
5  Cc1ccc2nc3c(cc(C(=O)NCC4CCCO4)n3C)c(=O)n2c1 (centres undefined)           -0.96
6  COc1ccccc1NC(=O)C(C)NS(=O)(=O)c1ccc(F)cc1 (centres undefined)           -5.58
7  COc1ccc(C2/C(=C(/O)c3ccc(OC(C)C)cc3)C(=O)C(=O)N2CCCN2CCOCC2)cc1 (centres undefined)           -5.21

Each compound below has a recorded value; state its inhibition.
1. CN(C1CCCCC1)S(=O)(=O)c1ccc(S(=O)(=O)N2CCCC2)cc1
2. O=C(Nc1cccc(OCC(=O)N2CCOCC2)c1)C1CCCCC1
3. COc1cccc(-c2nnc(NC(=O)Cc3cccs3)s2)c1
4. CCOC(=O)C1=C(N)OC2=C(C(=O)CC(C)(C)C2)C1c1ccco1 (centres undefined)
5. O=C(Nc1ccc(NC(=O)c2ccco2)nc1)c1cccnc1
6. O=C1NCCCc2c1no[n+]2[O-]

1: -0.13; 2: -4.66; 3: -5.34; 4: 1.04; 5: -7.4; 6: -0.13
